# tested-on: feline FcRn complex (FcRn-α subunit and β-microglobulin) (feline)
# protocol-description: SPR (Biacore), FcRn on SA chip, pH 6
observable: pKd
Recall that pKd is obtained by taking minus log10 of the concentration measured in molar.

[[record]]
binder = "feline IgG1a mutant ID No. 359: S252Y, S434R, D312A (antibody, part only; not given: variable domains and light chain, not shown: another chain or arm of the molecule) constant: ASTTAPSVFPLAPSCGTTSGATVALACLVLGYFPEPVTVSWNSGALTSGVHTFPAVLQASGLYSLSSMVTVPSSRWLSDTFTCNVAHPPSNTKVDKTVRKTDHPPGPKPCDCPKCPPPEMLGGPSIFIFPPKPKDTLYISRTPEVTCLVVDLGPDDSDVQITWFVDNTQVYTAKTSPREEQFNSTYRVVSVLPILHQAWLKGKEFKCKVNSKSLPSPIERTISKAKGQPHEPQVYVLPPAQEELSRNKVSVTCLIKSFHPPDIAVEWEITGQPEPENNYRTTPPQLDSDGTYFVYSKLSVDRSHWQRGNTYTCSVSHEALHRHHTQKSLTQSPGK"
value = 9.20

[[record]]
binder = "feline IgG1a mutant ID No. 322: S428Y, D312P, S434Y, D399M, D401R (antibody, part only; not given: variable domains and light chain, not shown: another chain or arm of the molecule) constant: ASTTAPSVFPLAPSCGTTSGATVALACLVLGYFPEPVTVSWNSGALTSGVHTFPAVLQASGLYSLSSMVTVPSSRWLSDTFTCNVAHPPSNTKVDKTVRKTDHPPGPKPCDCPKCPPPEMLGGPSIFIFPPKPKDTLSISRTPEVTCLVVDLGPDDSDVQITWFVDNTQVYTAKTSPREEQFNSTYRVVSVLPILHQPWLKGKEFKCKVNSKSLPSPIERTISKAKGQPHEPQVYVLPPAQEELSRNKVSVTCLIKSFHPPDIAVEWEITGQPEPENNYRTTPPQLMSRGTYFVYSKLSVDRSHWQRGNTYTCSVYHEALHYHHTQKSLTQSPGK"
value = 11.40

[[record]]
binder = "feline IgG1a mutant ID No. 377: S252Y, S434R, T256M (antibody, part only; not given: Variable domains, not shown: another chain or arm of the molecule) constant: ASTTAPSVFPLAPSCGTTSGATVALACLVLGYFPEPVTVSWNSGALTSGVHTFPAVLQASGLYSLSSMVTVPSSRWLSDTFTCNVAHPPSNTKVDKTVRKTDHPPGPKPCDCPKCPPPEMLGGPSIFIFPPKPKDTLYISRMPEVTCLVVDLGPDDSDVQITWFVDNTQVYTAKTSPREEQFNSTYRVVSVLPILHQDWLKGKEFKCKVNSKSLPSPIERTISKAKGQPHEPQVYVLPPAQEELSRNKVSVTCLIKSFHPPDIAVEWEITGQPEPENNYRTTPPQLDSDGTYFVYSKLSVDRSHWQRGNTYTCSVSHEALHRHHTQKSLTQSPGK"
value = 8.81


Exam item: Look at this binder and give its reported pKd. feline IgG1a mutant ID No. 286: S252Y, S428Y, D312P, L314K (antibody, part only; not given: Variable domains, not shown: another chain or arm of the molecule) constant: ASTTAPSVFPLAPSCGTTSGATVALACLVLGYFPEPVTVSWNSGALTSGVHTFPAVLQASGLYSLSSMVTVPSSRWLSDTFTCNVAHPPSNTKVDKTVRKTDHPPGPKPCDCPKCPPPEMLGGPSIFIFPPKPKDTLYISRTPEVTCLVVDLGPDDSDVQITWFVDNTQVYTAKTSPREEQFNSTYRVVSVLPILHQPWKKGKEFKCKVNSKSLPSPIERTISKAKGQPHEPQVYVLPPAQEELSRNKVSVTCLIKSFHPPDIAVEWEITGQPEPENNYRTTPPQLDSDGTYFVYSKLSVDRSHWQRGNTYTCSVYHEALHSHHTQKSLTQSPGK
Marked response: 7.57

The reported measurements were obtained from patent US20240400708A1.
